// data source = patent US20220227720A1

- System: VEEV
- run description: microbe, parasite or virus in culture
- Type: cell-based
- measurement context: Venezuelan equine encephalitis virus, Vero C1008, read-out: IC50 VEEV
I'd appreciate it if you could supply IC50 values for the items below.

input: Record lookup: for VEEV, what IC50 belongs to Cc1ccc(NC(=O)COc2ccccc2Cc2ccccc2)c(C(=O)O)c1 [Example 1] ?
output: 70 nM

input: Record lookup: for VEEV, what IC50 belongs to CCC(C)c1ccccc1OCCCC(=O)Nc1ccccc1C(=O)O (racemic) [Example 3] ?
output: 30 nM

input: Record lookup: for VEEV, what IC50 belongs to CCC(=O)Nc1ccc(-c2ccc(-c3ccccc3)cc2)cc1C(=O)O [Example 6] ?
output: 120 nM

input: Record lookup: for VEEV, what IC50 belongs to CCC(=O)Nc1ccc(-c2ccc(-c3ccccc3)c(F)c2)cc1C(=O)O [Example 7] ?
output: 120 nM

input: Record lookup: for VEEV, what IC50 belongs to CCCCCc1ccc(C#Cc2ccc(NC(=O)CC)c(C(=O)O)c2)cc1 [Example 8] ?
output: 7 nM

input: Record lookup: for VEEV, what IC50 belongs to CCCCCc1ccc(C#Cc2ccc(NC(=O)C(C)C)c(C(=O)O)c2)cc1 [Example 9] ?
output: 10.7 nM

input: Record lookup: for VEEV, what IC50 belongs to COc1ccc(Nc2ccc(Oc3ccccc3)cc2)c(C(=O)O)c1 [Example 4] ?
output: 60 nM
